Protocol text: NCI Yeast Anticancer Drug Screen. Data for the mec2-1 strain (AID 157)
Details: S. cerevisiae mec2-1 strain, at 50.0 µM, stronger effect = higher value
This is part of a sample that, as a whole, favours compounds with a hit. Of some 79,000 tested, about 15% had one in any assay.
Readout type: growth inhibition (%)
Just the number in %, nothing appended.

Completed entries (count: 5):
{"Molecule": "O=NN(C(=O)NCCCl)c1[nH]c(=O)ncc1I", "Unit of measurement": "%", "growth inhibition": -9.7}
{"Molecule": "Cc1cc(C)c(N)c(C)n1", "Unit of measurement": "%", "growth inhibition": -9.6}
{"Molecule": "Cc1cc2c(C)[nH]nc2c(C(=O)O)c1C", "Unit of measurement": "%", "growth inhibition": -5.15}
{"Molecule": "CSc1nc(NC2OC(CO)C(O)C(O)C2O)c(Br)c(=O)n1C (configuration not stated)", "Unit of measurement": "%", "growth inhibition": -1.7}
{"Molecule": "CC(C)(O)C1COC2=C1C(=O)c1ccccc1C2=O (configuration not stated)", "Unit of measurement": "%", "growth inhibition": -10.2}

Documented growth inhibition of CCCCNC(=O)c1cc2c(cc1Cl)Sc1nccn1S2(=O)=O : -0.3

Documented growth inhibition of NC(=S)Nc1ccccc1-c1ccccc1 : 13.8

Documented growth inhibition of Cc1ccc(Nc2c3ccccc3nc3ccccc23)cc1 : 88.5

Documented growth inhibition of Cc1c(CN(C)C)ccc2ccccc12 : -6.05

Documented growth inhibition of CCOC(=O)C(C#N)=C(CC)CC : -12.3

Documented growth inhibition of Oc1ccccc1C=Nc1ccc(Cl)cc1 : 3.6

Documented growth inhibition of C=C1[C@@H]([C@@]2(C)C=CC(=O)C(C)(C)[C@@H]2CC(=O)OC)CC[C@@]2(C)C(c3ccoc3)OC(=O)[C@H]3O[C@]132 (some centres not stated) : -1.5
